Tested on: MES-SA/Dx5
measurementNotes: The compound was evaluated for the growth inhibition of Dx5 w/PSC cell lines using MTT assay.
Assay type: functional, cell-based
assayContext: Homo sapiens
endpoint: pIC50
Keep it numeric: pIC50 is minus log10 of the concentration in mol/L.

[in] Which pIC50 is listed for COc1cccc2c1C(=O)c1c(O)c3c(c(O)c1C2=O)C[C@@](O)(C(C)=O)C[C@@H]3OC1CC(NC(=O)CCCC(=O)NCCC(=O)O[C@@H]2C[C@@H]3OC[C@]3(OC(C)=O)C3[C@@H](OC(=O)c4ccccc4)[C@@]4(O)C[C@@H](OC(=O)[C@@H](O)[C@H](NC(=O)c5ccccc5)c5ccccc5)C(C)=C([C@H](OC(C)=O)C(=O)[C@]32C)C4(C)C)C(O)C(C)O1 (stereo partly drawn) ?
[out] 5.96

[in] How about this compound: `COc1cccc2c1C(=O)c1c(O)c3c(c(O)c1C2=O)C[C@@](O)(C(C)=O)C[C@@H]3O[C@H]1C[C@H](N)[C@H](O)[C@H](C)O1`
[out] 7.85

[in] How about this compound: COc1cccc2c1C(=O)c1c(O)c3c(c(O)c1C2=O)C[C@@](O)(C(C)=O)C[C@@H]3OC1CC(NC(=O)c2ccccc2C(=O)NCCC(=O)O[C@@H]2C[C@@H]3OC[C@]3(OC(C)=O)C3[C@@H](OC(=O)c4ccccc4)[C@@]4(O)C[C@@H](OC(=O)[C@@H](O)[C@H](NC(=O)c5ccccc5)c5ccccc5)C(C)=C([C@H](OC(C)=O)C(=O)[C@]32C)C4(C)C)C(O)C(C)O1 (stereo partly drawn)
[out] 7.44

###

Tested on: MES-SA/Dx5
measurementNotes: The compound was evaluated for the growth inhibition of Dx5 w/PSC cell lines using MTT assay.
Type: functional, cell-based
assayContext: Homo sapiens
endpoint: IC50 (nM)
Give the value in nM but do not write nM after it.

[in] Which IC50 is listed for CC(=O)O[C@H]1C(=O)[C@@]2(C)[C@H]([C@H](OC(=O)c3ccccc3)[C@]3(O)C[C@H](OC(=O)[C@H](O)[C@@H](NC(=O)c4ccccc4)c4ccccc4)C(C)=C1C3(C)C)[C@]1(OC(C)=O)CO[C@@H]1C[C@@H]2O [PACLITAXEL] ?
[out] 0.3

[in] How about this compound: COc1cccc2c1C(=O)c1c(O)c3c(c(O)c1C2=O)C[C@@](O)(C(C)=O)C[C@@H]3OC1CC(NC(=O)c2ccc(C(=O)NCCC(=O)O[C@@H]3C[C@@H]4OC[C@]4(OC(C)=O)C4[C@@H](OC(=O)c5ccccc5)[C@@]5(O)C[C@@H](OC(=O)[C@@H](O)[C@H](NC(=O)c6ccccc6)c6ccccc6)C(C)=C([C@H](OC(C)=O)C(=O)[C@]43C)C5(C)C)cc2)C(O)C(C)O1 (some centres not stated)
[out] 1000
